target: T1, PKC-βI (purified isoform) (Homo sapiens (Human), UniProt P05771 2-671); experiment: competitive ELISA, coated purified PKC-βI, vs anti-PKC βI (SC-209); PRE 200 µM
T1 construct: also called PKC-beta I; PKC beta 1
T1 sequence (P05771 2-671 limits assumed): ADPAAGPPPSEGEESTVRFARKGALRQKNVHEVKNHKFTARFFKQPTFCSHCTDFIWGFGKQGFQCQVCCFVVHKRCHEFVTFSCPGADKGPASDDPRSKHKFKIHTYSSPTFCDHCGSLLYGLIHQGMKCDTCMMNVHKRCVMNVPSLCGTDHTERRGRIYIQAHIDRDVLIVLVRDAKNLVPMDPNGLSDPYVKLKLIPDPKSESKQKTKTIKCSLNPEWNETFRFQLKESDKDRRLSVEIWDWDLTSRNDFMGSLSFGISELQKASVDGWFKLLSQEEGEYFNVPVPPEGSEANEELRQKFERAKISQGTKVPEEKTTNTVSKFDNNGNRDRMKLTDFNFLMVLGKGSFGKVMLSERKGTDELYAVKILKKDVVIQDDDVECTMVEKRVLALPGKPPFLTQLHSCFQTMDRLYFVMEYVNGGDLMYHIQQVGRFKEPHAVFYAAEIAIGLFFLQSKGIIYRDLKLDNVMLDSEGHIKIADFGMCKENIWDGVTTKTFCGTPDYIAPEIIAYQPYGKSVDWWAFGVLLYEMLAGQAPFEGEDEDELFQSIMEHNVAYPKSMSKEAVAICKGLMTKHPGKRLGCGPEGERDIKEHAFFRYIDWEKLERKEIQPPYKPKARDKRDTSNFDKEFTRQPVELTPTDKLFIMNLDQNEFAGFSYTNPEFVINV
Please assign FALSE whenever relative binding capacity (100-%n, DMSO subtracted) is at or above 6%, and TRUE whenever it is below.

Worked set:
RRKKGGKDFVVKR (also called peptide PRE 1; peptide recognition element 1) [PRE 1]: FALSE
Ac-AKGIQEVKGGKDAQNLIGISI-NH2 (also called peptide PRE 5) [PRE 5]: TRUE
Ac-RDAQNLIGISI-NH2 (also called peptide PRE 11) [PRE 11]: FALSE
Ac-AKGIQEVKGGDAQNLIGISI-NH2 (also called peptide PRE 3) [PRE 3]: FALSE
Ac-KDAQNLIGISI-NH2 (also called peptide PRE 4) [PRE 4]: FALSE
Ac-RDAQNLI-NH2 (Ac-RDAQNLI-NH2; also called peptide PRE 13) [PRE 13]: TRUE
Ac-ISIGILNQADK-NH2 (also called peptide PRE 10) [PRE 10]: TRUE

Switching to the query record.
A record lists Ac-KDAQNLI-NH2 (Ac-KDAQNLI-NH2; also called peptide PRE 12) [PRE 12] . Is its relative binding capacity (100-%n, DMSO subtracted) below 6%?
TRUE
